- Test system: Metabotropic glutamate receptor 7 (Rattus norvegicus) (UniProt P35400)
- Sequence (P35400 whole entry): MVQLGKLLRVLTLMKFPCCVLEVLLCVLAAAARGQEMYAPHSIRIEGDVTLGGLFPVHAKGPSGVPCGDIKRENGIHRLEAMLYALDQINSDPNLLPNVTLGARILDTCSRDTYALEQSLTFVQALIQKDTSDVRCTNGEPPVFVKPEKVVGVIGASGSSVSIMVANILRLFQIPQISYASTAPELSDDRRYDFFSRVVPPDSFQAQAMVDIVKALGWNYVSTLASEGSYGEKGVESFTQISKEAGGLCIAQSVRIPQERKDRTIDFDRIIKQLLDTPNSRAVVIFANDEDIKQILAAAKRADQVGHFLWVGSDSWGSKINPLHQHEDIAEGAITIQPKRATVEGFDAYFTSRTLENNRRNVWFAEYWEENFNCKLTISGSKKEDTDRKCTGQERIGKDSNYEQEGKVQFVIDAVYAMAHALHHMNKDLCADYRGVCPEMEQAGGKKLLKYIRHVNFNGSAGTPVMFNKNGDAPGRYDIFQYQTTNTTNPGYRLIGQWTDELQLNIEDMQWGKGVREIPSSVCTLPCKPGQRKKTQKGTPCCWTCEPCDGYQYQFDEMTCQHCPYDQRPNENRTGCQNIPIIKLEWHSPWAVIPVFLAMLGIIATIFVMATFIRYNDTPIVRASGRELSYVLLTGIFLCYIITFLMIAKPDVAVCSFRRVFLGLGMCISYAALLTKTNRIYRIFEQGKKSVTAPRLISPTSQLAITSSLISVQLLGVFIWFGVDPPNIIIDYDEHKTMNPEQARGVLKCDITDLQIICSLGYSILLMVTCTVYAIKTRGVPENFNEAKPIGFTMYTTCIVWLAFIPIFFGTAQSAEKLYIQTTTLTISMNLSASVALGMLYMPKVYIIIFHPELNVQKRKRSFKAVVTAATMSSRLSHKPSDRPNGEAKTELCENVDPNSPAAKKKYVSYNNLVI
- Protocol notes: Negative allosteric modulation of rat mGlu7 receptor expressed in HEK cells co-expressing Galpha15 assessed as minimum L-AP4 response by measuring reduction in calcium mobilization incubated for 142 secs prior to glutamate addition and after 120 secs treated with L-AP4 and measured after 40 secs by Fluo-4 AM dye based fluorescence assay relative to L-AP4
- Assay type: functional, cell-based
- Set-up: scale not given: the % may be the effect or the level left
- Run conditions: filed as negative allosteric modulator, time 302.0 sec
Measure: Activity (%)
Output spec: scalar in %, unitless text.

For orientation, consider the following solved cases.
> print(dat)
                                 mol.smiles   measure  units.symbol  endpoint.result
1  CCOC(=O)c1cnc2c(OC)cccc2c1N1CCN(c2c(OC)cccc2OC)CC1  Activity             %               11
2  CCOC(=O)c1cnc2c(OC)cccc2c1-c1ccc(-c2ccccc2SC)nc1  Activity             %              5.6

Query block: For the compound CCOC(=O)c1cnc2c(OC)cccc2c1N1CCN(c2nccnc2OC)CC1 , what Activity is on record?
Result block: 11
